# System: L6-myotubes
# PROTOCOL DETAILS: Measurement of intracellular cAMP levels in differentiated L6-myotubes (Biological Example 3)
# Type: cell-based
# CONDITION LABEL: 0.25 h, intracellular cAMP in differentiated L6-myotubes; compound at 10 μM, activity relative to isoproterenol at 10 μM
Below, each entry is listed alongside its reported Emax at 10 µM.

Recorded results for 3 compounds are shown here.
O[C@@H](CNCCC[C@H]1CC[C@H](OCc2ccccc2)CC1)c1cccc(F)c1 [Compound 278] : < 25%
COC(=O)[C@H]1CC[C@@H](C(C)(C)NC[C@H](O)c2cccc(F)c2)CC1 [Compound 328] : < 25%
COc1ccc(CC23CCC([C@H](O)c4cccc(F)c4)(CC2)N3)cc1 [Compound 401] : < 25%

Prompt line: Retrieve Emax at 10 µM on L6-myotubes; query CC(C)(C[C@H]1CC[C@@H](N)CC1)NC[C@H](O)c1cccc(F)c1 [Compound 456]
Response line: < 25%

Prompt line: Retrieve Emax at 10 µM on L6-myotubes; query CC(C)(C[C@H]1CC[C@H](NS(=O)(=O)C(F)(F)F)CC1)NC[C@H](O)c1cccc(F)c1 [Compound 458]
Response line: < 25%

Prompt line: Retrieve Emax at 10 µM on L6-myotubes; query Cc1ncccc1[C@@H](O)CNC(C)(C)C [Compound 376]
Response line: 25 to 50%

Prompt line: Retrieve Emax at 10 µM on L6-myotubes; query CN(C)S(=O)(=O)[C@H]1CC[C@@H](CC(C)(C)NC[C@H](O)c2cncc(F)c2)CC1 [Compound 471]
Response line: 50 to 75%

Prompt line: Retrieve Emax at 10 µM on L6-myotubes; query CC(C)(C[C@H]1CC[C@H](NS(C)(=O)=O)CC1)NC[C@@H](O)c1cccc(C#N)n1 [Compound 428]
Response line: < 25%

---

# System: L6-myotubes
# PROTOCOL DETAILS: Measurement of intracellular cAMP levels in differentiated L6-myotubes (Biological Example 3)
# Type: cell-based
# CONDITION LABEL: 0.25 h, intracellular cAMP in differentiated L6-myotubes; compound at 10 μM, activity relative to isoproterenol at 10 μM
MEASURED ENDPOINT: Emax at 10 µM

COc1ccc(C[C@@]2(C)CC[C@H]([C@H](O)c3cccc(F)c3)N2)cc1 : 25 to 50%

Prompt line: Report Emax at 10 µM, nothing else, for this compound: "CC(=O)N[C@H]1CC[C@@H](C[C@@H]2CC[C@H]([C@@H](O)c3cccc(F)c3)N2)CC1"
Response line: < 25%

Prompt line: Report Emax at 10 µM, nothing else, for this compound: "CC(C)(C[C@H]1CC[C@@H](NC(=O)OC(C)(C)C)CC1)NC[C@H](O)c1cccc(C(F)(F)F)n1"
Response line: < 25%

Prompt line: Report Emax at 10 µM, nothing else, for this compound: "CNS(=O)(=O)[C@H]1CC[C@@H](CC(C)(C)NC[C@H](O)c2cccc(F)c2)CC1"
Response line: < 25%

Prompt line: Report Emax at 10 µM, nothing else, for this compound: "CC(C)(C[C@H]1CC[C@H](NC(=O)OC(C)(C)C)CC1)NC[C@H](O)c1cccc(F)c1"
Response line: 25 to 50%

Prompt line: Report Emax at 10 µM, nothing else, for this compound: "CC(C)(C[C@H]1CC[C@H](NC(=O)C2CCC2)CC1)NC[C@H](O)c1cccc(F)c1"
Response line: 50 to 75%

---

# System: L6-myotubes
# PROTOCOL DETAILS: Glucose uptake in differentiated L6-myotubes (Biological Example 2)
# Assay type: cell-based
# CONDITION LABEL: glucose uptake in differentiated L6-myotubes; compound at 10 μM, activity relative to isoproterenol at 10 μM; read-out: Biological example 2 (GU)
MEASURED ENDPOINT: Emax at 10 µM

CC(=O)N(Cc1ccccc1)[C@H]1CC[C@H](C[C@@H]2CC[C@H]([C@H](O)c3cccc(F)c3)N2)CC1 [Compound 482] : < 25%
CS(=O)(=O)N[C@H]1CC[C@H](C[C@@H]2CC[C@H]([C@@H](O)c3cccc(F)c3)N2)CC1 [Compound 505] : < 25%

Prompt line: Report Emax at 10 µM, nothing else, for this molecule: CC(C)(C[C@H]1CC[C@@H](S(N)(=O)=O)CC1)NC[C@H](O)c1cccc(F)c1 [Compound 517]
Response line: 25 to 50%

Prompt line: Report Emax at 10 µM, nothing else, for this molecule: CC(C)(CC[C@H]1CC[C@H](C(=O)O)CC1)NC[C@H](O)c1cncc(F)c1 [Compound 343]
Response line: 25 to 50%

Prompt line: Report Emax at 10 µM, nothing else, for this molecule: O[C@@H](c1cncc(F)c1)C12CCC(C/C=C/c3ccccc3)(CC1)N2 [Compound 529]
Response line: 25 to 50%

Prompt line: Report Emax at 10 µM, nothing else, for this molecule: CC(=O)N(C)[C@H]1CC[C@H](CC(C)(C)NC[C@H](O)c2cncc(F)c2)CC1 [Compound 506]
Response line: > 75%

Prompt line: Report Emax at 10 µM, nothing else, for this molecule: CC(C)(NC[C@H](O)c1cncc(F)c1)[C@H]1CC[C@@H](OCc2ccccc2)CC1 [Compound 282]
Response line: 50 to 75%

---

# Test system: L6-myotubes
# PROTOCOL DETAILS: Glucose uptake in differentiated L6-myotubes (Biological Example 2)
# Format: cell-based
# CONDITION LABEL: glucose uptake; compound at 10 μM relative to isoproterenol at 10 μM; read-out: Biological example 2 (GU)
MEASURED ENDPOINT: Emax at 10 µM

Recorded results for 5 compounds are shown here.
CC1(C)CCC[C@@H]([C@@H](O)c2cccc(F)c2)N1 : 25 to 50%
Oc1ccc(C(O)CNCCCC(F)(F)F)cc1 (stereo not drawn) : 50 to 75%
CCC[C@H]1CCC[C@@H]([C@@H](O)c2cccc(F)c2)N1 : 25 to 50%
CC(C)(C)NC[C@H](O)c1ccc(F)c(O)c1 : > 75%
CCCCNC[C@H](O)c1csc(C(F)(F)F)n1 : 25 to 50%

Prompt line: Retrieve Emax at 10 µM on L6-myotubes; query "O[C@@H](c1cccc(F)c1)[C@H]1CCC2(CCCC2)N1"
Response line: < 25%

Prompt line: Retrieve Emax at 10 µM on L6-myotubes; query CCCCNCC(O)c1cc(F)cc(F)c1 (stereo not drawn)
Response line: 50 to 75%

---

# Test system: L6-myotubes
# PROTOCOL DETAILS: Glucose uptake in differentiated L6-myotubes (Biological Example 2)
# Assay type: cell-based
# CONDITION LABEL: glucose uptake in differentiated L6-myotubes; compound at 10 μM, activity relative to isoproterenol at 10 μM; read-out: Biological example 2 (GU)
MEASURED ENDPOINT: Emax at 10 µM

Recorded results for 3 compounds are shown here.
O[C@@H](CNC[C@H]1CC[C@H](O)CC1)c1cncc(F)c1 : < 25%
CS(=O)(=O)N(Cc1ccccc1)[C@H]1CC[C@@H](C[C@@H]2CC[C@H]([C@H](O)c3cccc(F)c3)N2)CC1 : < 25%
CC(=O)N[C@H]1CC[C@H](CNC[C@H](O)c2cncc(F)c2)CC1 : 50 to 75%

Prompt line: Report Emax at 10 µM, nothing else, for this compound: "CC(C)(NC[C@H](O)c1cncc(F)c1)[C@H]1CC[C@H](OCC(=O)O)CC1"
Response line: 50 to 75%

---

# Tested on: L6-myotubes
# PROTOCOL DETAILS: Glucose uptake in differentiated L6-myotubes (Biological Example 2)
# Format: cell-based
# CONDITION LABEL: glucose uptake; compound at 10 μM relative to isoproterenol at 10 μM; read-out: Biological example 2 (GU)
Below, each entry is listed alongside its reported Emax at 10 µM.

CCC[C@H]1CCC[C@H]([C@@H](O)c2ccc(F)cc2)N1 : 25 to 50%
CC1(C)CCC[C@H]([C@@H](O)c2cccc(F)c2)N1 : 25 to 50%

Prompt line: Report Emax at 10 µM, nothing else, for this compound: "CC(C)(C)NC[C@H](O)c1cccc(F)c1"
Response line: > 75%

Prompt line: Report Emax at 10 µM, nothing else, for this compound: Oc1ccc(C(O)CNCCCC2CCCCC2)cc1 (centres unmarked)
Response line: > 75%

Prompt line: Report Emax at 10 µM, nothing else, for this compound: "CCC[C@@H](C)NC[C@H](O)c1cccc(O)c1"
Response line: > 75%

---

# System: L6-myotubes
# PROTOCOL DETAILS: Measurement of intracellular cAMP levels in differentiated L6-myotubes (Biological Example 3)
# Type: cell-based
# CONDITION LABEL: 0.25 h, intracellular cAMP; compound at 10 μM relative to isoproterenol at 10 μM
Below, each entry is listed alongside its reported Emax at 10 µM.

CCC[C@H]1CCC[C@H]([C@@H](O)c2cccc(O)c2)N1 : < 25%
CCC12CCC([C@@H](O)c3cccc(F)c3)(CC1)N2 : < 25%
CCCCNC[C@H](O)c1ccc(F)cc1O : < 25%
CC1(C)CC[C@H]([C@@H](O)c2cncc(F)c2)N1 : < 25%
CCCCNCC(O)c1ccc(F)c(N)c1 (stereo not shown) : < 25%

Prompt line: Report Emax at 10 µM, nothing else, for this compound: "CC1(NC[C@H](O)c2cccc(F)c2)CCC1"
Response line: 25 to 50%

Prompt line: Report Emax at 10 µM, nothing else, for this compound: "CCC[C@@H]1CCC[C@@H]([C@H](O)c2cccc(O)c2)N1"
Response line: < 25%

Prompt line: Report Emax at 10 µM, nothing else, for this compound: "CCC[C@@H]1CCC[C@H]([C@@H](O)c2ccccc2F)N1"
Response line: < 25%

Prompt line: Report Emax at 10 µM, nothing else, for this compound: "CC1(C)CC[C@H]([C@H](O)c2ccc(F)cc2)N1"
Response line: < 25%

Prompt line: Report Emax at 10 µM, nothing else, for this compound: "CC1(C)CCC[C@H]([C@@H](O)c2ccccc2F)N1"
Response line: 25 to 50%
